The reader will find reported pKd values listed item by item below.
Biological target: T1, human CSF1R-His (Acrobiosystem, CSR-H5228) (human, UniProt P07333 20-512, limits assumed)
T1 construct: Bought protein; The catalogue number is printed only for the SPR assay; also called human CSF-1R protein; not shown: His tag
T1 sequence (P07333 20-512 limits assumed): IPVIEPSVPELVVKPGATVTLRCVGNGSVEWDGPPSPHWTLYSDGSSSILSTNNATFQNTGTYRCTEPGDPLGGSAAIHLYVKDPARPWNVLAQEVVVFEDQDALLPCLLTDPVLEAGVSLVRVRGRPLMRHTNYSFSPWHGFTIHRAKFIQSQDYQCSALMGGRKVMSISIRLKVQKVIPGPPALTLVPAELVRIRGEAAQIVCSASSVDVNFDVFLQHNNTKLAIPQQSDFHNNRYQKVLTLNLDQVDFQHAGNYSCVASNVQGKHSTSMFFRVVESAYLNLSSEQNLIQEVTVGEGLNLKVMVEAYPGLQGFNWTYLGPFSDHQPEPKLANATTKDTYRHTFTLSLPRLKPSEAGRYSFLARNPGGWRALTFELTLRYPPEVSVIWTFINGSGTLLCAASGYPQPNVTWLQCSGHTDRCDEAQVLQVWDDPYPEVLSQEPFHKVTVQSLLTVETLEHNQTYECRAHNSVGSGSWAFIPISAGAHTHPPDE
Assay: SPR Biacore T200; IgG captured by anti-human Fc, CSF1R-His as analyte, 1:1 fit
For clarity, pKd is expressed as the negative log10 of concentration in mol/L.

Answered cases to consult:
TY21430 (antibody, human IgG4, V domains shown, Human IgG4 isotype with S241P mutation) VH: EVQLVESGGGLVQPGGSLRLSCAASGYSITSGHHWAWIRQAPGKGLEWVSSISGSGSTTYYADSVKGRFTISRDNSKNTLYLQLNSLRAEDTAVYYCARGSYYGAGSFDYWGQGTLVTVSS VL: DIQLTQSPSSLSASVGDRVTITCRASQGITSALAWYQQKPGKAPKLLIYDASSLESGVPSRFSGSGSGTDFTLTISSLQPEDFATYYCQQYYPWPWTFGQGTKVEIK : 8.08
TY21429 (antibody, human IgG4, V domains shown, Human IgG4 isotype with S241P mutation) VH: EVQLVESGGGLVQPGGSLRLSCAASGYTFSNYAIHWVRQAPGKGLEWVSAISGTGSSTYYADSVKGRFTISRDNSKNTLYLQLNSLRAEDTAVYYCARHSHSRYAFDYWGQGTLVTVSS VL: DIQLTQSPSSLSASVGDRVTITCRASHVRTAVAWYQQKPGKAPKLLIYDASNLETGVPSRFSGSGSGTDFTLTISSLQPEDFATYYCQQYYPWPWTFGQGTKVEIK : 8.50
TAC2205 (antibody, human IgG4, V domains shown) VH: QVQLVQSGAEVKKPGSSVKVSCKASGYTFTDNYMIWVRQAPGQGLEWMGDINPYNGGTTFNQKFKGRVTITADKSTSTAYMELSSLRSEDTAVYYCARESPYFSNLYVMDYWGQGTLVTVSS VL: EIVLTQSPATLSLSPGERATLSCKASQSVDYDGDNYMNWYQQKPGQAPRLLIYAASNLESGIPARFSGSGSGTDFTLTISSLEPEDFAVYYCHLSNEDLSTFGGGTKVEIK : 9.17
TY21433 (antibody, human IgG4, V domains shown, Human IgG4 isotype with S241P mutation) VH: EVQLVESGGGLVQPGGSLRLSCAASGFTFSNYAIHWVRQAPGKGLEWVSVISGYGSTTYYADSVKGRFTISRDNSKNTLYLQLNSLRAEDTAVYYCARSTVATPFAYWGQGTLVTVSS VL: DIQLTQSPSSLSASVGDRVTITCKASQDVRTAVAWYQQKPGKAPKLLIYAASTLQSGVPSRFSGSGSGTDFTLTISSLQPEDFATYYCQQSYPWPWTFGQGTKVEIK : 8.45

Moving on to another binder below.
Item: TY21371 (antibody, V domains shown, Human IgG4 isotype with S241P mutation (Uniprot P01861); Its IgG1 format is called TY22179 (used only in PK/PD)) VH: EVQLVESGGGLVQPGGSLRLSCAASGFTFSGYAIHWVRQAPGKGLEWVSVISGYGSSTYYADSVKGRFTISRDNSKNTLYLQLNSLRAEDTAVYYCARDPGVGGFDVWGQGTLVTVSS VL: DIQLTQSPSSLSASVGDRVTITCRASQSVRRRFLAWYQQKPGKAPKLLIYDASSLESGVPSRFSGSGSGTDFTLTISSLQPEDFATYYCQQYYPIPRTFGQGTKVEIK | pKd: 9.22
